Data credit: the Human Domainome abundance scans (Beltran et al. 2025)

B1: Tyrosine-protein kinase Lck, residues 63 to 120; numbered along this chain, P06239 (parent)
chain: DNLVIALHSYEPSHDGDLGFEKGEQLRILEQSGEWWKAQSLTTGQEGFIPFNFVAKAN

# Variants of: B1
# ASSAY DETAILS: abundance fitness (aPCA) (normalised: wild type 0, dead -1); higher = more abundant; growth selection in yeast, the domain comes from the species named
# CONDITION DESCRIPTION: Homo sapiens
Output: class label from abundance fitness. Mapping: interval 1 (below -0.4), interval 2 (-0.4 to below -0.1), interval 3 (-0.1 or more)

Which bin, given its abundance fitness, does "A57E" occupy?
interval 3

Which abundance fitness band matches "I49A" ?
interval 1

Lab note: sort "Q31V" into the matching abundance fitness band.
interval 2
